biological target: Ba/F3-FGFR3-transfected cells (Homo sapiens); assay: Ba/F3-FGFR3 (minus IL3) cellular proliferation assay, Alamar Blue; assay type: cell-based; conditions: minus IL3, 384 well
Sequence (P22607 whole entry, change not shown): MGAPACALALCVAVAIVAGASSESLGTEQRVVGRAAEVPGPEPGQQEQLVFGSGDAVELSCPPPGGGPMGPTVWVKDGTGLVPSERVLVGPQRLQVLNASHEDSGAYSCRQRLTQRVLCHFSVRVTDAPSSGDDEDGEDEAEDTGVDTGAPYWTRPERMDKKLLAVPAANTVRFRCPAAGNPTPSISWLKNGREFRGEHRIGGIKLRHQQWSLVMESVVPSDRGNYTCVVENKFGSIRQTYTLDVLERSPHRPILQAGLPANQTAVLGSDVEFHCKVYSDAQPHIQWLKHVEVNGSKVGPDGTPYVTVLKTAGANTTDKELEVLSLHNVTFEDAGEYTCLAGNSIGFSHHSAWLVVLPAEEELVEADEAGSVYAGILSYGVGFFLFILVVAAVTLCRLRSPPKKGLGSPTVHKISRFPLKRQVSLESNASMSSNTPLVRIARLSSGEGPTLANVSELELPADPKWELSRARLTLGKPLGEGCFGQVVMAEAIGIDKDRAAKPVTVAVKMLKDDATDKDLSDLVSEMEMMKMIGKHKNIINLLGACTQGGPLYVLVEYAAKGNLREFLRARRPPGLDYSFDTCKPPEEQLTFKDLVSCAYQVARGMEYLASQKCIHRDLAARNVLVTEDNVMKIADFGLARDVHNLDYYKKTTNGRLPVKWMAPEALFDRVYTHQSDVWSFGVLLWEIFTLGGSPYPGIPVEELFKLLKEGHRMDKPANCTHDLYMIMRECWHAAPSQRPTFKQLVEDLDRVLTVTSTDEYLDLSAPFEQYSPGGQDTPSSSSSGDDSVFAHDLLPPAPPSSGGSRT
The entries below come with measured BAF3-FGFR 3 (MIN IL3) 384 well pIC50 values attached.
outcome_measure: BAF3-FGFR 3 (MIN IL3) 384 well pIC50

compound="COc1cc(OC)cc(N(Cc2cccc(CN)n2)c2ccc3ncc(-c4ccc(N)nc4)nc3c2)c1 [Compound 51]" assayed_target="Ba/F3-FGFR3-transfected cells (Homo sapiens)" observed_measurement=~5.77
compound="COc1cc(OC)cc(N(CCNC(C)C)c2ccc3ncc(-c4ccc(N)nc4)nc3c2)c1 [Compound 17]" assayed_target="Ba/F3-FGFR3-transfected cells (Homo sapiens)" observed_measurement=~7.09
compound="COc1cc(OC)cc(N(CC2CC2)c2ccc3ncc(C(=O)NCCN4CCOCC4)nc3c2)c1 [Compound 96]" assayed_target="Ba/F3-FGFR3-transfected cells (Homo sapiens)" observed_measurement=<5

----------
target: Ba/F3-KDR-transfected cells (Homo sapiens, UniProt P35968); assay: Ba/F3-KDR (minus IL3) cellular proliferation assay, Alamar Blue; type: cell-based; conditions: minus IL3
Sequence (P35968 whole entry, change not shown): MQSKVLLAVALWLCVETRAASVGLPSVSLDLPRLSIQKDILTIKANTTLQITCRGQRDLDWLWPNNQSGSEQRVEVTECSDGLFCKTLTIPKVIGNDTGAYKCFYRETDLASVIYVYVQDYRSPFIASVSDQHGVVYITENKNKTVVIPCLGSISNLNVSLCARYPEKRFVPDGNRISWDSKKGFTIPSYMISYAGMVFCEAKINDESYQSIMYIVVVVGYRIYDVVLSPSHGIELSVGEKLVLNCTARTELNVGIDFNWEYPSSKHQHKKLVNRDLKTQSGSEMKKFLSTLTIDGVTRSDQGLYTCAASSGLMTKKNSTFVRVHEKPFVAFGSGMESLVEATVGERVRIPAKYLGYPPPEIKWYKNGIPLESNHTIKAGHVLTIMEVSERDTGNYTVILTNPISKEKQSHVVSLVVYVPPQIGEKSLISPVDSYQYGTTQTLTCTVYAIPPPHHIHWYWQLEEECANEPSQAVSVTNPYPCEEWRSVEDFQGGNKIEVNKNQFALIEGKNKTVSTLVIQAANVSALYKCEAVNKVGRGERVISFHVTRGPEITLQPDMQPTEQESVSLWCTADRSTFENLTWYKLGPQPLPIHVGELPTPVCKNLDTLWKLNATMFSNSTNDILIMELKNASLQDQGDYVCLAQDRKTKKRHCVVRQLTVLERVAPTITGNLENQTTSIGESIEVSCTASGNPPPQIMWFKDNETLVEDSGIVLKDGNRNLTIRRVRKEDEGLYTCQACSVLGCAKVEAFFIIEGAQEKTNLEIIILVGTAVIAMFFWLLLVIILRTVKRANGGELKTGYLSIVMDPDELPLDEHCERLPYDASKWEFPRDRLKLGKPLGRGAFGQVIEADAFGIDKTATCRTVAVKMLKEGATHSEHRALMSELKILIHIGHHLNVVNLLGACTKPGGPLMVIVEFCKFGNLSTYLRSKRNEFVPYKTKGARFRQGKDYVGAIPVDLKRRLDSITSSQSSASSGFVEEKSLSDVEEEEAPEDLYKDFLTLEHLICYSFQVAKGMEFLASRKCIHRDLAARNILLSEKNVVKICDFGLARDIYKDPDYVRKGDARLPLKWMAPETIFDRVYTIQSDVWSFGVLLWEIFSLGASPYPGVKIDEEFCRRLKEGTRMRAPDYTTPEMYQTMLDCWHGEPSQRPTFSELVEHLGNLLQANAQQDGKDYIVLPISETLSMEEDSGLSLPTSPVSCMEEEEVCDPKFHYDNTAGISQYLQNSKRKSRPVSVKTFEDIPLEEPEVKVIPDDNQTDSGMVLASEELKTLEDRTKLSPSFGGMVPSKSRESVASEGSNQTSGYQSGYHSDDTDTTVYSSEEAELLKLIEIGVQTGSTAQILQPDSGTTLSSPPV
outcome_measure: BAF3-KDR (MIN IL3) 384 well pIC50

molecule="COc1cc(OC)cc(N(CC2CC2)c2ccc3ncc(C#Cc4ccncc4)nc3c2)c1 [Compound 23]" observed_measurement=<5
molecule="CO/N=C(\\C)c1cnc2ccc(N(CCO)c3cc(OC)cc(OC)c3)cc2n1 [Compound 29]" observed_measurement=<5
molecule="COc1cc(OC)cc(N(CC2CC2)c2ccc3ncc(-c4ccc(N)nc4)nc3c2)c1 [Compound 94]" observed_measurement=<5
molecule="COc1cc(OC)cc(N(CC2CC2)c2ccc3ncc(-c4cn(C)nn4)nc3c2)c1 [Compound 71]" observed_measurement=<5

----------
molecular target: KDR (h) (VEGFR2) (Homo sapiens)
Sequence (P35968 20-1356): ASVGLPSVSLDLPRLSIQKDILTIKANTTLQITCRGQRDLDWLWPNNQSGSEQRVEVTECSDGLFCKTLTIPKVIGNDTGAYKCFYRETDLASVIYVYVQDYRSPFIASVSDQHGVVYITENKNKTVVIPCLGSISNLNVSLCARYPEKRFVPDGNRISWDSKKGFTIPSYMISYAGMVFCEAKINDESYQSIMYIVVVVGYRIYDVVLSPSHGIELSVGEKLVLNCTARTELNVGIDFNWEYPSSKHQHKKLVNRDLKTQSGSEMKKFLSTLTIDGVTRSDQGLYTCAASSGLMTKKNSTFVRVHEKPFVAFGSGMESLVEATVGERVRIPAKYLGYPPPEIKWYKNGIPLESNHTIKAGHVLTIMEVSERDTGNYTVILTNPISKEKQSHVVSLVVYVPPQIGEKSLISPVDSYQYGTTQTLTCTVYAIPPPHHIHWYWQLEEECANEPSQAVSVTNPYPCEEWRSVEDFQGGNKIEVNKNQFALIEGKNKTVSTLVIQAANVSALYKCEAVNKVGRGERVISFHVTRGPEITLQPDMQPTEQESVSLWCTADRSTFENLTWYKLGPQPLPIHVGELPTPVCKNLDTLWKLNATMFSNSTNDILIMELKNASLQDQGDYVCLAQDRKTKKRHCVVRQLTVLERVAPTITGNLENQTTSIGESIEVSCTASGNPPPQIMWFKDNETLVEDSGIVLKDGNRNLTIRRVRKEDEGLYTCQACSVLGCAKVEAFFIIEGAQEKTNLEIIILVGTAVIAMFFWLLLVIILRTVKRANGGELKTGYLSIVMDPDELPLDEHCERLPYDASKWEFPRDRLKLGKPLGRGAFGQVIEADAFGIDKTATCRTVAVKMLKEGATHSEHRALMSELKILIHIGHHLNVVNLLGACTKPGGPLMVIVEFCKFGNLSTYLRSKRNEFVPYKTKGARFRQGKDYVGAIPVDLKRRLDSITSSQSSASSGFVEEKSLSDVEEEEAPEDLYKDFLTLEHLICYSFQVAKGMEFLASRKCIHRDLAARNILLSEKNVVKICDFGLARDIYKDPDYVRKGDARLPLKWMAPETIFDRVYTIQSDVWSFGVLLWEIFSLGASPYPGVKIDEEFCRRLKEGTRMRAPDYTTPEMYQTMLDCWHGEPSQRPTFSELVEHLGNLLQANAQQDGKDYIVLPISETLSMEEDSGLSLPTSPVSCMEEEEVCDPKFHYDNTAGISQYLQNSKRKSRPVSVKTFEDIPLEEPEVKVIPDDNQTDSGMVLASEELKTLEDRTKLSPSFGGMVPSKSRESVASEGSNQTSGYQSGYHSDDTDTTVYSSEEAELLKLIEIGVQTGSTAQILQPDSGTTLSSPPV
pIC50: −log10 of the molar value.
# pIC50 >= 6 gives 1, anything below gives -1

compound=COc1cc(OC)cc(N(CC2CC2)c2ccc3ncc(-c4ccnn4C)nc3c2)c1 class_assignment=-1
compound=COc1cc(OC)cc(N(CC2CC2)c2ccc3ncc(-c4nnc(C)o4)nc3c2)c1 class_assignment=-1
compound="COCC(O)CN(c1cc(OC)cc(OC)c1)c1ccc2ncc(-c3cccnc3)nc2c1 (single isomer, unassigned) [Compound 46]" class_assignment=1
compound=CNC(=O)c1cc(-c2cnc3ccc(N(CCNC(C)C)c4cc(OC)cc(OC)c4)cc3n2)ccn1 class_assignment=1
compound=COc1cc(OC)cc(N(CC2CC2)c2ccc3ncc(-c4cccn4C)nc3c2)c1 class_assignment=-1
compound=COc1cc(OC)cc(N(CCCO)c2ccc3ncc(-c4cccnc4F)nc3c2)c1 class_assignment=-1
compound=COc1cc(OC)cc(N(CCO)c2ccc3ncc(-c4ccnc(C(=O)NCCCN)c4)nc3c2)c1 class_assignment=1
compound=COc1cc(OC)cc(N(CC2CC2)c2ccc3ncc(N4CCN(C)CC4)nc3c2)c1 class_assignment=-1
compound=COCCCN(c1cc(OC)cc(OC)c1)c1ccc2ncc(-c3ccn(C)c3)nc2c1 class_assignment=1
compound=COc1cc(OC)cc(N(CC2CC2)c2ccc3ncc(-c4ccc5c(c4)OCO5)nc3c2)c1 class_assignment=-1
compound=COc1cc(OC)cc(N(CCCNC(C)C)c2ccc3ncc(-c4ccnc(NC(=O)NC(C)C)c4)nc3c2)c1 class_assignment=1
compound=COc1cc(OC)cc(N(CCCO)c2ccc3ncc(-c4ccc(N5CCOCC5)nc4)nc3c2)c1 class_assignment=1

----------
target: Ba/F3-FGFR3-transfected cells (Homo sapiens); experiment: Ba/F3-FGFR3 (minus IL3) cellular proliferation assay, Alamar Blue; assay type: cell-based; details: minus IL3, 384 well
outcome_measure: BAF3-FGFR 3 (MIN IL3) 384 well pIC50

molecule="COCC(CN(c1cc(OC)cc(OC)c1)c1ccc2ncc(-c3cccnc3)nc2c1)OC(C)=O (single isomer, unassigned) [Compound 52]" outcome_measure="BAF3-FGFR 3 (MIN IL3) 384 well pIC50" observed_measurement=~6.17
molecule=COc1cc(OC)cc(N(CCO)c2ccc3ncc(-c4ccc(N5CCOCC5)nc4)nc3c2)c1 outcome_measure="BAF3-FGFR 3 (MIN IL3) 384 well pIC50" observed_measurement=6.17
molecule=COc1cc(OC)cc(N(CC2CC2)c2ccc3ncc(-c4cn(CCO)nn4)nc3c2)c1 outcome_measure="BAF3-FGFR 3 (MIN IL3) 384 well pIC50" observed_measurement=~5.15
molecule="CNC(=O)c1cc(-c2cnc3ccc(N(CCN4CCCC4CO)c4cc(OC)cc(OC)c4)cc3n2)ccn1 (stereo not shown)" outcome_measure="BAF3-FGFR 3 (MIN IL3) 384 well pIC50" observed_measurement=~6.77

----------
biological target: Ba/F3-FGFR1-transfected cells (Homo sapiens, UniProt P11362); test: Ba/F3-FGFR1 (minus IL3) cellular proliferation assay, Alamar Blue; assay type: cell-based; conditions: minus IL3, 384 well
Sequence (P11362 whole entry, change not shown): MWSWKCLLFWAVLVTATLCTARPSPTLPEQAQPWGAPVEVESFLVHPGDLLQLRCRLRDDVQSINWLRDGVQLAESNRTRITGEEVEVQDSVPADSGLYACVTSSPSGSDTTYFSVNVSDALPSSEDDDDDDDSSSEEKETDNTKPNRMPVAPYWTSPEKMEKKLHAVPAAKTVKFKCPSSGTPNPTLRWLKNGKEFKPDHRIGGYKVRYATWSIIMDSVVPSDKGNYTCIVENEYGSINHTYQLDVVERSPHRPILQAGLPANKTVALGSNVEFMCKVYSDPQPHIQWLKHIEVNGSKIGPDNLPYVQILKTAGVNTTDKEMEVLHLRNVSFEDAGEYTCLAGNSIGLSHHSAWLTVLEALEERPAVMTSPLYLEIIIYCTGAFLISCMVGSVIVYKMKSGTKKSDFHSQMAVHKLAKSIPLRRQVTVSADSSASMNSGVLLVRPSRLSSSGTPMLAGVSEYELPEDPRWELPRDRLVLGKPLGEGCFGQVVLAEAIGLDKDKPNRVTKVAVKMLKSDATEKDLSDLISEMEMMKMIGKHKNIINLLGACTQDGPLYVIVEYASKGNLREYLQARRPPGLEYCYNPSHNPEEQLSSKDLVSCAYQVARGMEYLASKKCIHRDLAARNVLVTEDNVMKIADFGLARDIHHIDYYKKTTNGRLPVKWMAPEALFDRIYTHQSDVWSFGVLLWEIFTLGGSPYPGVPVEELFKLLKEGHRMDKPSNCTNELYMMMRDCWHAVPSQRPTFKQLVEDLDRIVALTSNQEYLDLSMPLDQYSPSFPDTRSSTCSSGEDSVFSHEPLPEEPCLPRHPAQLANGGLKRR
outcome_measure: BAF3-FGFR 1 (MIN IL3) 384 well pIC50

smiles_input=COc1cc(OC)cc(N(CCCO)c2ccc3ncc(-c4ccnc(-c5ccnc(Cl)c5)c4)nc3c2)c1 outcome_measure="BAF3-FGFR 1 (MIN IL3) 384 well pIC50" observed_measurement=<5
smiles_input=COc1cc(OC)cc(N(CC2CC2)c2ccc3ncc(-c4cccn4C)nc3c2)c1 outcome_measure="BAF3-FGFR 1 (MIN IL3) 384 well pIC50" observed_measurement=<5
smiles_input=COc1cc(OC)cc(N(CC2CC2)c2ccc3ncc(Nc4nccs4)nc3c2)c1 outcome_measure="BAF3-FGFR 1 (MIN IL3) 384 well pIC50" observed_measurement=<5
smiles_input=COc1cc(OC)cc(N(CC2CC2)c2ccc3ncc(-c4ccc5c(c4)OCO5)nc3c2)c1 outcome_measure="BAF3-FGFR 1 (MIN IL3) 384 well pIC50" observed_measurement=<5.4

----------
Biological target: Ba/F3-Flt3-transfected cells (Homo sapiens, UniProt P36888, cells depend on it, form not given)
Sequence (P36888 1-993): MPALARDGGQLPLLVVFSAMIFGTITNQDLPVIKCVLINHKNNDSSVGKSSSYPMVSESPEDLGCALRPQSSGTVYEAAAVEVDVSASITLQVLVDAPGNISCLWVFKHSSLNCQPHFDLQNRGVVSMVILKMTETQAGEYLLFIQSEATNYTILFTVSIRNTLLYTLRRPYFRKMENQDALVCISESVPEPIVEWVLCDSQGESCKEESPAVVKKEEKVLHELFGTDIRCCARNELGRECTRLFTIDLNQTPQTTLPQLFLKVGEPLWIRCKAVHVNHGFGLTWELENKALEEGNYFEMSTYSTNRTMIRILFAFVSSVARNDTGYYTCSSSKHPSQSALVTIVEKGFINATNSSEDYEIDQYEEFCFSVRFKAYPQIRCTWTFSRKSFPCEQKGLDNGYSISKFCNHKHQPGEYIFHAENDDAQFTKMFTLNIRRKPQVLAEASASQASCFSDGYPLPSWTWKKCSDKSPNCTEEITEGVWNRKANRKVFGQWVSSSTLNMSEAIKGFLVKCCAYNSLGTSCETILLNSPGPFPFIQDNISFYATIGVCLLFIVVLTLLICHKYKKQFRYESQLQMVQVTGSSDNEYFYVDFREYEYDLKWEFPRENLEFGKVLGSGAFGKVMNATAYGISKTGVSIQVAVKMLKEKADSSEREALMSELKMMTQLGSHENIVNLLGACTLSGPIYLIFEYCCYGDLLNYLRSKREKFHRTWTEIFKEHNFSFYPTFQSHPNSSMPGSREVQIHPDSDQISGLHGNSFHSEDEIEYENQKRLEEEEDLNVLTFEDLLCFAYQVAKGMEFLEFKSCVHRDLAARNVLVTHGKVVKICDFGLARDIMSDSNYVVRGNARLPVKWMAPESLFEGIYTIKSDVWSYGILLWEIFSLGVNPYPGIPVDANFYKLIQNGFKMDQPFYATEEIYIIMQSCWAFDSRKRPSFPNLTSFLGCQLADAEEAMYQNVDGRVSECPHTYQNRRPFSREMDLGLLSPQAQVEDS
Assay: Ba/F3-Flt3 (minus IL3) cellular proliferation assay, Alamar Blue
Format: cell-based
Conditions: minus IL3
outcome_measure: BAF3-FLT3 (MIN IL3) 384 well pIC50

smiles_input=COc1cc(OC)cc(N(CCCNCC(F)(F)F)c2ccc3ncc(-c4ccnc(Cl)c4)nc3c2)c1 observed_measurement=<5
smiles_input=COc1cc(OC)cc(N(CCCNC(C)C)c2ccc3ncc(-c4ccnc(NC(=O)OC(C)(C)C)c4)nc3c2)c1 observed_measurement=5.91
smiles_input=COc1cc(OC)cc(N(CC2CC2)c2ccc3ncc(-c4cnnn4C)nc3c2)c1 observed_measurement=5.09
smiles_input=COc1cc(OC)cc(N(CC2CC2)c2ccc3ncc(-c4ccn(CCO)c4)nc3c2)c1 observed_measurement=<5
smiles_input=COc1cc(OC)cc(N(CC2CC2)c2ccc3ncc(-n4ccnc4C)nc3c2)c1 observed_measurement=<5
smiles_input=COc1cc(OC)cc(N(CC2CC2)c2ccc3ncc(-c4nccn4C)nc3c2)c1 observed_measurement=<5
smiles_input=COc1cc(OC)cc(N(CCN2CCOCC2)c2ccc3ncc(-c4ccc(N)nc4)nc3c2)c1 observed_measurement=<5
smiles_input=COc1cc(OC)cc(N(CCCO)c2ccc3ncc(-c4ccc(N5CCOCC5)nc4)nc3c2)c1 observed_measurement=<5
smiles_input=COc1cc(OC)cc(N(CCO)c2ccc3ncc(C4=CCN(C(=O)OC(C)(C)C)CC4)nc3c2)c1 observed_measurement=<5
smiles_input=COc1cc(OC)cc(N(CC2CC2)c2ccc3ncc(-c4cn[nH]n4)nc3c2)c1 observed_measurement=<5
smiles_input=COc1cc(OC)cc(N(CC2CC2)c2ccc3ncc(C(=O)NCc4ccc(F)cc4)nc3c2)c1 observed_measurement=<5
